Each entry below carries its recorded phenotypic distance.
Test system: E57 (patient-derived glioblastoma stem cells of mesenchymal subtype)
Protocol summary: phenotypic distance (Euclidean, principal components) from DMSO controls (arbitrary units); higher = stronger morphological change
Experimental parameters: 1000 nM; exposure time: 72 h
Structures can show the parent of a compound that is named as a salt.

Molecule	Target	phenotypic distance
O=C1CC[C@@H](C(=O)N2CSC[C@H]2C(=O)O)N1	E57	0.924
C[C@@H](O)[C@H]1C(=O)N2C(C(=O)O)=C(S[C@@H]3CN[C@H](C(=O)N(C)C)C3)[C@H](C)[C@H]12	E57	0.871
CCCCCCCCCCCCCCCC[N+](C)(C)CCN(Cc1ccc(OC)cc1)c1ncccn1 [Thonzonium bromide]	E57	1.72
CCOC(=O)OC(C)OC1=C(C(=O)Nc2ccccn2)N(C)S(=O)(=O)c2ccccc21 (stereo not given)	E57	1.03
CNCCCC12CCC(c3ccccc31)c1ccccc12 [Maprotiline hydrochloride]	E57	0.498
C/C=C1\NC(=O)[C@H]2CSSCC/C=C/[C@H](CC(=O)N[C@H](C(C)C)C(=O)N2)OC(=O)[C@H](C(C)C)NC1=O	E57	9.9
CC(=O)O[C@@]12CO[C@@H]1C[C@H](O)[C@@]1(C)C(=O)[C@H](O)C3=C(C)[C@@H](OC(=O)[C@H](O)[C@@H](NC(=O)OC(C)(C)C)c4ccccc4)C[C@@](O)([C@@H](OC(=O)c4ccccc4)[C@H]21)C3(C)C	E57	5.4
COC(=O)[C@@H]1[C@H]2C[C@H]3c4[nH]c5ccccc5c4CCN3C[C@@H]2CC[C@@H]1O [Yohimbine hydrochloride]	E57	0.804
CC(C)(C)CC(C)(C)c1ccc(OCCOCC[N+](C)(C)Cc2ccccc2)cc1 [Benzethonium chloride]	E57	2.04
CSc1ccc2c(c1)N(CCC1CCCCN1C)c1ccccc1S2 (stereo not given) [Thioridazine hydrochloride]	E57	0.966
Cc1cc(C(C)(C)CC(C)(C)C)ccc1OCCOCC[N+](C)(C)Cc1ccccc1 [Methyl benzethonium chloride]	E57	1.42
C[C@H](Cc1cc2c(c(C(N)=O)c1)N(CCCO)CC2)NCCOc1ccccc1OCC(F)(F)F	E57	0.794
OC(c1cc(C(F)(F)F)nc2c(C(F)(F)F)cccc12)C1CCCCN1 (stereo not given) [Mefloquine hydrochloride]	E57	0.948
NC1CCN(c2nc3c(cc2F)c(=O)c(C(=O)O)cn3-c2ccc(F)cc2F)C1 (stereo not given) [Tosufloxacin hydrochloride]	E57	0.743
CC(C)N1CCN(c2ccc(OCC3COC(Cn4cncn4)(c4ccc(Cl)cc4Cl)O3)cc2)CC1 (stereo not given)	E57	0.505
Cc1cc(Nc2cc(N3CCN(C)CC3)nc(Sc3ccc(NC(=O)C4CC4)cc3)n2)n[nH]1	E57	8.6
COc1c(N2CCNC(C)C2)c(F)cc2c(=O)c(C(=O)O)cn(C3CC3)c12 (stereo not given)	E57	0.465
Nc1ccn([C@@H]2O[C@H](CO)[C@@H](O)[C@@H]2O)c(=O)n1	E57	6.77
OCCN1C[C@H](O)[C@@H](O)[C@H](O)[C@H]1CO	E57	0.624
CCCCCCCCCCCCCC(=O)O[C@@H]1[C@@H](C)[C@@]2(O)[C@@H](C=C(CO)C[C@]3(O)C(=O)C(C)=C[C@@H]23)[C@@H]2C(C)(C)[C@]12OC(C)=O [Phorbol 12-myristate 13-acetate]	E57	6.18
CCn1cc(-c2ccnc3[nH]c(-c4cccc(CN(C)C)c4)cc23)c(-c2ccc(NC(=O)N(C)C)cc2)n1	E57	5.9
CC1(C)S[C@@H]2[C@H](NC(=O)Cc3ccccc3)C(=O)N2[C@H]1C(=O)O [Benzylpenicillin sodium]	E57	0.999
COc1cc2ncnc(Nc3cccc(Br)c3)c2cc1OC	E57	1.59
Clc1ccc(COC(Cn2ccnc2)c2ccc(Cl)cc2Cl)c(Cl)c1 (stereo not given)	E57	1.89
CNCCc1ccccn1 [Betahistine mesylate]	E57	0.773

---

System: E57
Protocol summary: phenotypic distance (Euclidean, principal components) from DMSO controls (arbitrary units); higher = stronger morphological change
Experimental parameters: 37 nM; exposure time: 72 h
Structures can show the parent of a compound that is named as a salt.
Returns one of rule met or rule not met; rule met when phenotypic distance is >= 0.6.

Compound	Target	Answer label
Cn1nnc2c(C(N)=O)ncn2c1=O [Temozolomide]	E57	rule not met
CCCCCC[C@H]1C(=O)O[C@H](C)[C@H](NC(=O)c2cccc(NC=O)c2O)C(=O)O[C@@H](C)[C@@H]1OC(=O)CC(C)C [Antimycin A]	E57	rule met
OCCN1CCN(CCCN2c3ccccc3Sc3ccc(C(F)(F)F)cc32)CC1 [Fluphenazine dihydrochloride]	E57	rule met
N=C(NCCCCCCNC(=N)NC(=N)Nc1ccc(Cl)cc1)NC(=N)Nc1ccc(Cl)cc1 [Chlorhexidine]	E57	rule not met
NC1CCN(c2nc3c(cc2F)c(=O)c(C(=O)O)cn3-c2ccc(F)cc2F)C1 (stereo unspecified) [Tosufloxacin hydrochloride]	E57	rule met
Nc1ccn([C@@H]2O[C@H](CO)[C@@H](O)C2(F)F)c(=O)n1 [Gemcitabine HCl]	E57	rule met
N=C(N)c1ccc(-c2ccc(-c3ccc(C(=N)N)cc3)o2)cc1 [Furamidine dihydrochloride]	E57	rule not met
NC(=O)c1ccccc1 [Benzamide]	E57	rule not met
CC[C@]1(O)C[C@@H]2CN(CCc3c([nH]c4ccccc34)[C@@](C(=O)OC)(c3cc4c(cc3OC)N(C)[C@H]3[C@@](O)(C(=O)OC)[C@H](OC(C)=O)[C@]5(CC)C=CCN6CC[C@]43[C@@H]65)C2)C1 [Vinblastine sulfate]	E57	rule met
CN1C(=O)OC(C)(C)C1=O [Trimethadione]	E57	rule not met
N=c1ccn2c(n1)O[C@H]1[C@H](O)[C@@H](CO)O[C@H]12 [Ancitabine hydrochloride]	E57	rule met
C[C@H](NC(=O)[C@@H](O)c1cc(F)cc(F)c1)C(=O)N[C@@H]1C(=O)N(C)c2ccccc2-c2ccccc21	E57	rule met
C=CC(=O)Nc1cccc(Oc2nc(Nc3ccc(N4CCN(C)CC4)cc3)nc3ccsc23)c1 [Olmutinib]	E57	rule met
Nc1ncnc2c1c(-c1ccc(Oc3ccccc3)cc1)cn2C1CCCC1	E57	rule met
Clc1ccc(COC(Cn2ccnc2)c2ccc(Cl)cc2Cl)cc1 (stereo unspecified) [Econazole nitrate]	E57	rule not met
Cc1[nH]nc(C(F)(F)F)c1Cc1sc2c(c1C(=O)N1C[C@](C)(O)CO1)c(=O)n(C)c(=O)n2C(C)C [AZD3965]	E57	rule met

---

Test system: E13 (patient-derived glioblastoma stem cells of classical subtype)
Protocol summary: phenotypic distance (Euclidean, principal components) from DMSO controls (arbitrary units); higher = stronger morphological change
Experimental parameters: 12.3 nM; exposure time: 72 h
Counter-ions that a name gives are not always drawn.

Compound	Target	phenotypic distance
C[C@]12CC[C@H](O)C[C@H]1CC[C@@H]1[C@@H]2C[C@@H](O)[C@]2(C)[C@@H](C3=CC(=O)OC3)CC[C@]12O [Digoxigenin]	E13	0.571
CC(NCCC(c1ccccc1)c1ccccc1)c1ccccc1 (stereo not drawn) [Fendiline hydrochloride]	E13	0.566
C[C@H](Cc1cc2c(c(C(N)=O)c1)N(CCCO)CC2)NCCOc1ccccc1OCC(F)(F)F [Silodosin]	E13	0.872
C#C[C@]1(O)CC[C@H]2[C@@H]3CCc4cc(OC5CCCC5)ccc4[C@H]3CC[C@@]21C [Quinestrol]	E13	0.526
NC1CCN(c2nc3c(cc2F)c(=O)c(C(=O)O)cn3-c2ccc(F)cc2F)C1 (stereo not drawn) [Tosufloxacin hydrochloride]	E13	0.689
CC(C)NCC(O)c1cc(O)cc(O)c1 (stereo not drawn) [Metaproterenol sulfate, orciprenaline sulfate]	E13	0.546
C=C(C)[C@H]1Cc2c(ccc3c2O[C@@H]2COc4cc(OC)c(OC)cc4[C@@H]2C3=O)O1 [Rotenone]	E13	0.572
CC(C)C[C@H](NC(=O)CNC(=O)c1cc(Cl)ccc1Cl)B(O)O [Ixazomib]	E13	9.62

---

System: E31 (patient-derived glioblastoma stem cells of proneural subtype)
Protocol summary: phenotypic distance (Euclidean, principal components) from DMSO controls (arbitrary units); higher = stronger morphological change
Experimental parameters: 4.11523 nM; exposure time: 72 h
Structures can show the parent of a compound that is named as a salt.
Assign Condition met whenever phenotypic distance does not fall below 1; assign Condition not met whenever it does.

Molecule	Answer label
CCN(CC)CCCC(C)Nc1c2ccc(Cl)cc2nc2ccc(OC)cc12 (stereo not given) [Quinacrine dihydrochloride hydrate]	Condition met
O=c1c2ccccc2[se]n1-c1ccccc1 [Ebselen]	Condition not met
CC(C)C[C@H](NC(=O)[C@H](Cc1ccccc1)NC(=O)c1cnccn1)B(O)O [Bortezomib]	Condition met
COc1cc2nc(N3CCN(C(=O)c4ccco4)CC3)nc(N)c2cc1OC [Prazosin hydrochloride]	Condition not met
O=C(O)c1ccc(-c2c[nH]c3ncc(-c4ccccc4)cc23)cc1C1CCCC1	Condition not met

---

Test system: FT3469 (normal neural stem cell line);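 also: nuclei counted by high-content imaging of Hoechst-stained cells in laminin-coated 384-well plates, relative to 0.1% DMSO vehicle wells, with staurosporine as cell-death control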
Protocol summary: surviving fraction (nuclei count normalised to DMSO); higher = more cells surviving (less toxic)
Experimental parameters: 111.1 nM; exposure time: 72 h
// classify(record): look up surviving fraction in ranges interval 1: < 0.8; interval 2: ≥ 0.8 and < 1; interval 3: ≥ 1

Compound	Answer label
CC1CNc2c(cccc2S(=O)(=O)N[C@@H](CCCNC(=N)N)C(=O)N2CC[C@@H](C)C[C@@H]2C(=O)O)C1 (stereo partly specified) [Argatroban]	interval 2
CC(C)C[C@H](NC(=O)[C@H](Cc1ccccc1)C[C@@H](O)[C@H](Cc1ccccc1)NC(=O)OC(C)(C)C)C(=O)N[C@@H](Cc1ccccc1)C(N)=O [L-685,458]	interval 2
CC[C@@H]1C(=O)N(C)c2cnc(Nc3ccc(C(=O)N[C@H]4CC[C@H](N5CCN(CC6CC6)CC5)CC4)cc3OC)nc2N1C(C)C [Volasertib]	interval 1
CC(C)C[C@H](NC(=O)CNC(=O)c1cc(Cl)ccc1Cl)B(O)O [Ixazomib]	interval 1
NCCNc1ccc(NCCN)c2c1C(=O)c1ccncc1C2=O [Pixantrone dimaleate]	interval 1
CC1(C)S[C@@H]2[C@H](NC(=O)Cc3ccccc3)C(=O)N2[C@H]1C(=O)O [Benzylpenicillin sodium]	interval 3
C[C@@H](Oc1cc(-c2cnn(C3CCNCC3)c2)cnc1N)c1c(Cl)ccc(F)c1Cl [Crizotinib]	interval 3
O=C(/C=C\n1cnc(-c2cc(C(F)(F)F)cc(C(F)(F)F)c2)n1)NNc1cnccn1 [Selinexor]	interval 1
CCOC(=O)OC(C)OC1=C(C(=O)Nc2ccccn2)N(C)S(=O)(=O)c2ccccc21 (stereo unspecified) [Ampiroxicam]	interval 3
C[C@@]12C(=O)OC(=O)[C@]1(C)[C@H]1CC[C@@H]2O1 [Cantharidin]	interval 1
CCN1CCN(C(=O)Cc2ccc(Nc3ncc(F)c(Nc4ccc(C(=O)Nc5ccccc5Cl)cc4)n3)cc2)CC1 [Aurora-A Inhibitor I]	interval 2

All values here come from the supplement of paper PMC13207355.
